pIC50 overview
Target: Integrin alpha-4/beta-7 (Homo sapiens, UniProt P13612+P26010)
Sequence (P13612 whole entry): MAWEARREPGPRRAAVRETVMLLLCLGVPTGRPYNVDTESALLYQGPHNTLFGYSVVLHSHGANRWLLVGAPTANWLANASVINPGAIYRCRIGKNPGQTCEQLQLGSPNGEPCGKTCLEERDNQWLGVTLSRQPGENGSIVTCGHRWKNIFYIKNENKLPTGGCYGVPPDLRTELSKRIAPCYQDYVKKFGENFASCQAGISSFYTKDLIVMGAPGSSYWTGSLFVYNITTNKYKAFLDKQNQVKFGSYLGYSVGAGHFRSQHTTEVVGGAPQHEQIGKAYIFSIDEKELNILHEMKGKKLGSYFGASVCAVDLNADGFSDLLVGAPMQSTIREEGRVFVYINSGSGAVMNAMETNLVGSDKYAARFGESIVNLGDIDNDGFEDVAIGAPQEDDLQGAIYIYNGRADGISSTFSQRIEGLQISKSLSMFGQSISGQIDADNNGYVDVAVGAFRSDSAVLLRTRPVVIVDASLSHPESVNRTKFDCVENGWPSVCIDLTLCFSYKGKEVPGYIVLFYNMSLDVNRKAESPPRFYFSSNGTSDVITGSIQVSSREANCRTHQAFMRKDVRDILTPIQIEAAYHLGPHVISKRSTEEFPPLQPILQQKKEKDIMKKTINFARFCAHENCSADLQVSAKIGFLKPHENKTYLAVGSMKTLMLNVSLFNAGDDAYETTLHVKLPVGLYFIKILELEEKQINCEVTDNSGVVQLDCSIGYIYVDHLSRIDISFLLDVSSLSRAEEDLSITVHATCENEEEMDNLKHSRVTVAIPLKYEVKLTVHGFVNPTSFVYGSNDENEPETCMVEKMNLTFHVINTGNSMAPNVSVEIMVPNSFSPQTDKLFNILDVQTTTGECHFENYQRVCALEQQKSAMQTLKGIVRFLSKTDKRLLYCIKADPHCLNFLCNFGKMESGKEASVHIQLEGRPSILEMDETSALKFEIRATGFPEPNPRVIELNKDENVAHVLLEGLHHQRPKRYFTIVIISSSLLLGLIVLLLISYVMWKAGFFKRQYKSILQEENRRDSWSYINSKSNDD
Sequence (P26010 whole entry): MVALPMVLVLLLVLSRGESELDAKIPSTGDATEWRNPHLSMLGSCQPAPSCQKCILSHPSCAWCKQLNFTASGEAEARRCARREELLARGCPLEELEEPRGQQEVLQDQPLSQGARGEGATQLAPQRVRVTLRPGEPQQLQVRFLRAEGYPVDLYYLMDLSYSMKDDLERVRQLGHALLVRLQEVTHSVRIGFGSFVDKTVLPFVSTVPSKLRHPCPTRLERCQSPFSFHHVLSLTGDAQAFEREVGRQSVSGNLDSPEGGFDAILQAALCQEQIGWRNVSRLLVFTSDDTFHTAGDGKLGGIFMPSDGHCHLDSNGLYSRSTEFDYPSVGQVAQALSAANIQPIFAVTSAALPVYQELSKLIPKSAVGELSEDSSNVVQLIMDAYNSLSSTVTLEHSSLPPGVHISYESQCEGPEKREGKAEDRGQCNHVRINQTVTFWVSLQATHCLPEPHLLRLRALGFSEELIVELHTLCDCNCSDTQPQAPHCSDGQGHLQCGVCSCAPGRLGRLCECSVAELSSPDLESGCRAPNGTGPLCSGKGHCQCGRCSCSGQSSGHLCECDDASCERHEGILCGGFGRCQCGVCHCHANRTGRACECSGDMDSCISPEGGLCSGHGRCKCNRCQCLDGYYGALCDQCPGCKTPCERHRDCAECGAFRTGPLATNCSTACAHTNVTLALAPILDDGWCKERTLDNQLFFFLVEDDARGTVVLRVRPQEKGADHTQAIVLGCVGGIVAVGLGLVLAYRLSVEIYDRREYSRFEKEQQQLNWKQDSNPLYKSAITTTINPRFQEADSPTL
Experiment: K562 Cell Adhesion Assay (alpha4beta7 Mediated Adhesion/MAdCAM-1)
Settings: pH 7.4; 23 °C
Experimental: M2 anti-FLAG antibody coated 96-well plates were coated with recombinant FLAG-hMAdCAM-1 contained in Dulbecco PBS. The compounds to be tested were added. Stably transfected K562 cells expressing human alpha4beta7 integrin that had been labeled with […] fluorescein diacetate succinimidyl ester (CFDA-SE) were added to each well and allowed to adhere for 1 h at room temperature. […] The plate was read on a 96-well fluorescent plate reader at 485 nm excitation and 530 nm emission.
For clarity, pIC50 is expressed as the negative log10 of concentration in mol/L.

SMILES REPR | pIC50
O=C(O)[C@H](Cc1ccc(N2C(=O)c3ccccc3C2=O)cc1)NC(=O)[C@@H]1C2CCC(CC2)N1S(=O)(=O)c1ccccc1 | 6.96
O=C(Nc1ccc(C[C@H](NC(=O)[C@@H]2C3CCC(CC3)N2S(=O)(=O)c2ccccc2)C(=O)O)cc1)c1ccncc1 | 6.92

// pIC50 lookup, compound = O=C(Nc1ccc(C[C@H](NC(=O)[C@@H]2C3CCC(CC3)N2S(=O)(=O)c2ccccc2)C(=O)O)cc1)c1cc(Cl)nc(Cl)c1 , result: 7.34

Every entry's value here was drawn from BindingDB's records for doi:10.1016/j.bmc.2006.01.067.
